- measured-on: T1, Full-length human TIGIT on CHO-K1 cells (CHO-K1 human TIGIT) (human, UniProt Q495A1 22-244)
- T1 construct: NCBI XP_024309156.1; the entry includes the signal peptide (limits not recoverable); The strain (high, medium, low) is named under assay; also called high expression strain 1D2; medium expression strain 2D10
- T1 sequence: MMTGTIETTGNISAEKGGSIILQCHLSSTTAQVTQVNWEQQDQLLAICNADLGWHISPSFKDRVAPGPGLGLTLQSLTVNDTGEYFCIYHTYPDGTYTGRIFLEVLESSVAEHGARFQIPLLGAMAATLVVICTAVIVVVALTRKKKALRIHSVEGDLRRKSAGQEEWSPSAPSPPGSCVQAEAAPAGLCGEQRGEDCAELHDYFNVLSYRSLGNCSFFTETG
- method: FACS; CHO-K1 human TIGIT high expression strain
quantity-kind: pEC50
The read-out pEC50 is expressed as -log10 of concentration in moles per litre.

binder	observed-result
TIGIT-070-H1L1 (antibody, V domains shown, Humanized anti-TIGIT antibody) VH: EVQLVQSGAEVKKPGASVKVSCKASGYTFTNYYMHWVRQAPGQRLEWMGRIDPDSGGSKYNEKFKSRVTITVDKSASTAYMELSSLRSEDTAVYYCAREGHYGFYSDYWGQGTTVTVSS VL: DIQMTQSPSSLSASVGDRVTITCRVSENIYSYLAWYQQKPGKSPKLLIYNAKTLAEGVPSRFSGSGSGTDFTLTISSLQPEDFATYYCQHHYGNPLTFGPGTKVDIK	9.31
TIGIT-006-H5L3 (antibody, V domains shown, Humanized anti-TIGIT antibody) VH: EVQLQESGPGLVKPSETLSLTCAVSGYSMTSDYWNWIRQPPGKKLEYIGYISYSGRTYYNPSLKSRVTISRDTSKNQFSLKLSSVTAADTAVYYCARGDYSNYGGAMYDWGQGTTVTVSS VL: DIVMTQSPDSLAVSLGERATINCRASQGVSTTIAWYQQKPGQSPKLLIYSASYRYTGVPRFSGSGSGTDFTLTISSLQAEDVAVYYCQQYYSSPFTFGGGTKVEIK	9.35
TIGIT-005-H2L1d (antibody, V domains shown, Humanized anti-TIGIT antibody with NG-site mutation in VL) VH: EVQLVQSGAEVKKPGASVKVSCKASGYAFTNYLIEWVRQAPGQRLEWMGVINPGSGGTNYKEKFKGRVTITADKSSSTAYMELSSLRSEDTAVYYCARGEYFFFDYWGQGTTVTVSS VL: DIVMTQSPDSLAVSLGERATINCKASQHVSNAVAWYQHKPGQSPKLLIYSASYRYTGVPDRFSGSGSGTDFTLTISSLQAEDVAVYYCQQHYNTPHTFGGGTKVEIK	9.49

Task: Return pEC50 for the following binder: TIGIT-002-H4L3 (antibody, V domains shown, Humanized anti-TIGIT antibody) VH: EVQLQESGPGLVKPSETLSLTCAVSGYSITSDSWNWIRQPPGKKLEYIGYISYSGNTYYNPSLKSRVTISRDTSKNQFSLKLSSVTAADTAVYYCARLDFSNYGGAVDYWGQGTTVTVSS VL: DIVMTQSPDSLAVSLGERATINCKASQNVRTAVAWYQQKPGQSPKLMIYSASYRYTGVPDRFSGSGSGTDFTLTISSLQAEDVAVYYCQQYYTTPWTFGGGTKVEIK
Output: 9.53

Source listed as patent US20240343803A1.
